# System: CMV
# protocol.details: Anti-CMV assay: virus-induced cytopathicity in HEL cell cultures
# reported.conditions: read-out: EC50 CMV AD-169; CMV strain AD-169, HEL cell cultures
Exercise: state measured EC50 for each of the compounds provided.
API: value field is a number in µM; no unit string.

Data request: API: value(readout=EC50, system=CMV) for record CCCCCCCCCNCc1c(O)cc2c(c1O)-c1cc(ccc1O)C1NC(=O)C3NC(=O)C4NC(=O)C(Cc5ccc(c(Cl)c5)Oc5cc3cc(c5O)Oc3ccc(cc3Cl)C(O)C(NC1=O)C(=O)NC2C(=O)NCCCN(C)C)NC(=O)C(N)c1ccc(O)c(c1)Oc1cc(O)cc4c1 (stereo not shown) [Compound 21]
Data returned: 8

Data request: API: value(readout=EC50, system=CMV) for record CCCCCCCCCCNC1(C)CC(OC2C(Oc3c4cc5cc3Oc3ccc(cc3Cl)C(O)C(NC(=O)C(CC(C)C)NC)C(=O)NC(CC(N)=O)C(=O)NC5C(=O)NC3C(=O)NC(C(=O)NC(C(=O)O)c5cc(O)cc(O)c5-c5cc3ccc5O)C(OC3CC(C)(N)C(O)C(C)O3)c3ccc(cc3)O4)OC(CO)C(O)C2O)OC(C)C1O (stereo not shown) [Compound 68]
Data returned: 20

###

Exercise: state measured pEC50 for each of the molecules provided.
# Test system: HIV-1 (IIIB)
# protocol.details: Inhibition of HIV-1 (IIIB)-induced cytopathicity (giant cell formation) in CEM cells
# Assay type: cell-based
# reported.conditions: read-out: EC50 HIV-1 (concentration required to inhibit HIV-induced giant cell formation by 50%); HIV-1, CEM cell cultures
Field pEC50 (float): negative decimal logarithm of the concentration in molar.

Data request: Give the measured pEC50 of CCCCCCCCCCNC(=O)C(N)CCCCNC(=O)C1NC(=O)C2NC(=O)C(NC(=O)C3NC(=O)C4NC(=O)C(Cc5ccc(c(Cl)c5)Oc5cc3cc(c5O)Oc3ccc(cc3Cl)C2O)NC(=O)C(N)c2ccc(O)c(c2)Oc2cc(O)cc4c2)c2ccc(O)c(c2)-c2c(O)cc(O)cc21 (stereo not shown) [Compound 23] .
Data returned: 5.59

Data request: Give the measured pEC50 of CN(C)CCCNC(=O)C1NC(=O)C2NC(=O)C(NC(=O)C3NC(=O)C4NC(=O)C(Cc5ccc(c(Cl)c5)Oc5cc3cc(c5O)Oc3ccc(cc3Cl)C2O)NC(=O)C(N)c2ccc(O)c(c2)Oc2cc(O)cc4c2)c2ccc(O)c(c2)-c2c1cc(O)c(CNC1C3CC4CC(C3)CC1C4)c2O (stereo not shown) [Compound 19] .
Data returned: 5.60

Data request: Give the measured pEC50 of NC1C(=O)NC2Cc3ccc(c(Cl)c3)Oc3cc4cc(c3O)Oc3ccc(cc3Cl)C(O)C3NC(=O)C(NC(=O)C4NC(=O)C(NC2=O)c2cc(O)cc(c2)Oc2cc1ccc2O)c1ccc(O)c(c1)-c1c(O)cc(O)cc1C(C(=O)N(C(=O)NC1CCCCC1)C1CCCCC1)NC3=O (stereo not shown) [Compound 167] .
Data returned: 5.22

Data request: Give the measured pEC50 of NC(=O)CC1NC(=O)C(N)C(O)c2ccc(c(Cl)c2)Oc2cc3cc(c2O)Oc2ccc(cc2)C(O)C2NC(=O)C(NC(=O)C3NC1=O)c1ccc(O)c(c1)-c1c(O)cc(O)cc1C(C(=O)NCC13CC4CC(CC(C4)C1)C3)NC2=O (stereo not shown) [Compound 107] .
Data returned: 5.30
